Tested on: EMC-BAC-2
assay: relative viability (nuclei count vs DMSO), 5 days (fraction); higher = more cells survive
condition_label: first compound 0.2 µM
Can you tell me relative viability for the items I'm about to list?
Give bare numbers.

Example cases with answers are listed next.
compound: Cc1csc(=NC2CCCCC2)n1/N=C/c1ccc(O)c(O)c1O [MIM1] + O=C(c1cc(Cc2n[nH]c(=O)c3ccccc23)ccc1F)N1CCN(C(=O)C2CC2)CC1 [Olaparib] (partner 8 µM)
measurement_target: EMC-BAC-2
assay_readout: relative viability
result: 0.494
--
compound: CN1CCN(CCOc2cc(OC3CCOCC3)c3c(Nc4c(Cl)ccc5c4OCO5)ncnc3c2)CC1 [Saracatinib] + CS(=O)(=O)N1CCN(Cc2cc3nc(-c4cccc5[nH]ncc45)nc(N4CCOCC4)c3s2)CC1 [Pictilisib] (partner 1 µM)
measurement_target: EMC-BAC-2
assay_readout: relative viability
result: 0.507
--
compound: CN1CCN(CCOc2cc(OC3CCOCC3)c3c(Nc4c(Cl)ccc5c4OCO5)ncnc3c2)CC1 [Saracatinib] + Nc1ncn([C@H]2C[C@H](O)[C@@H](CO)O2)c(=O)n1 [Decitabine] (partner 2 µM)
measurement_target: EMC-BAC-2
assay_readout: relative viability
result: 0.922

Now for the compound whose relative viability we want.
Query relative viability on EMC-BAC-2 for CCNC(=O)c1noc(-c2cc(C(C)C)c(O)cc2O)c1-c1ccc(CN2CCOCC2)cc1 [Luminespib] + CC(C)C[C@H](NC(=O)[C@H](Cc1ccccc1)NC(=O)c1cnccn1)B(O)O [Bortezomib] (partner 0.002 µM)
0.913

---

Test system: ABC-1
assay: relative viability (nuclei count vs DMSO), 5 days (fraction); higher = more cells survive
condition_label: first compound 6.325 µM
assay_readout: relative viability

molecule: Cc1csc(=NC2CCCCC2)n1/N=C/c1ccc(O)c(O)c1O [MIM1] + Cc1nc(Nc2ncc(C(=O)Nc3c(C)cccc3Cl)s2)cc(N2CCN(CCO)CC2)n1 [Dasatinib] (partner 0.075 µM)
relative viability: 0.299
//
molecule: Cc1csc(=NC2CCCCC2)n1/N=C/c1ccc(O)c(O)c1O [MIM1] + CS(=O)(=O)N1CCN(Cc2cc3nc(-c4cccc5[nH]ncc45)nc(N4CCOCC4)c3s2)CC1 [Pictilisib] (partner 1 µM)
relative viability: 0.286
//
molecule: Cc1csc(=NC2CCCCC2)n1/N=C/c1ccc(O)c(O)c1O [MIM1] + COc1cc2c(Oc3ccc(NC(=O)C4(C(=O)Nc5ccc(F)cc5)CC4)cc3F)ccnc2cc1OCCCN1CCOCC1 [Foretinib] (partner 0.25 µM)
relative viability: 0.324

Now for the molecule whose relative viability we want.
Query relative viability on ABC-1 for Cc1csc(=NC2CCCCC2)n1/N=C/c1ccc(O)c(O)c1O [MIM1] + Nc1ncn([C@H]2C[C@H](O)[C@@H](CO)O2)c(=O)n1 [Decitabine] (partner 2 µM)
0.944

---

System: NCI-H1993
assay: relative viability (nuclei count vs DMSO), 5 days (fraction); higher = more cells survive
condition_label: first compound 0.003162 µM
assay_readout: relative viability
One number for each entry.

Example cases with answers are listed next.
compound: Cc1cn(-c2cc(NC(=O)c3ccc(C)c(Nc4nccc(-c5cccnc5)n4)c3)cc(C(F)(F)F)c2)cn1 [Nilotinib] + Nc1ncn([C@H]2C[C@H](O)[C@@H](CO)O2)c(=O)n1 [Decitabine] (partner 2 µM)
measurement_target: NCI-H1993
assay_readout: relative viability
result: 0.694

compound: Cc1cn(-c2cc(NC(=O)c3ccc(C)c(Nc4nccc(-c5cccnc5)n4)c3)cc(C(F)(F)F)c2)cn1 [Nilotinib] + Nc1nc2[nH]cc(CCc3ccc(C(=O)N[C@@H](CCC(=O)O)C(=O)O)cc3)c2c(=O)[nH]1 [Pemetrexed] (partner 0.2 µM)
measurement_target: NCI-H1993
assay_readout: relative viability
result: 0.685

Now for the compound whose relative viability we want.
Query relative viability on NCI-H1993 for Cc1cn(-c2cc(NC(=O)c3ccc(C)c(Nc4nccc(-c5cccnc5)n4)c3)cc(C(F)(F)F)c2)cn1 [Nilotinib] + CC(=O)c1c(C)c2cnc(Nc3ccc(N4CCNCC4)cn3)nc2n(C2CCCC2)c1=O [Palbociclib] (partner 0.5 µM)
0.705
